# Experimental setup: in vivo
Value kind: actual loss during 24 hours of CRRT

[Mo]	significant loss
[Cu]	significant loss
[Se]	significant loss
